Values were extracted from PubChem BioAssay AID1918993.

# System: 233499-124-R-J3-PDC complex spheroid growth;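 note: spheroids exposed to agents for seven days before reading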
# assay.details: Anticancer human tumor 233499-124-R-J3-PDC patient-derived colon adenocarcinoma cell line growth inhibition [AhR]
# condition.context: second compound 3.16 µM; first compound 0.1 µM; active compounds read low
measured.quantity: viability, T/C (%)

* CC(C)c1c(-c2ccccc2)nc2c(C#N)c[nH]n2c1=O + Cc1ccccc1N=Nc1ccc(NC(=O)c2ccnn2C)c(C)c1 | 99.5
* CC1(C)CCC(CN2CCN(c3ccc(C(=O)NS(=O)(=O)c4ccc(NCC5CCOCC5)c([N+](=O)[O-])c4)c(Oc4cnc5[nH]ccc5c4)c3)CC2)=C(c2ccc(Cl)cc2)C1 + Cc1cncc(-c2nc(NCCc3c[nH]c4ccccc34)c3ncn(C(C)C)c3n2)c1 | 68.5
* O=C(C=Cc1cccc(S(=O)(=O)Nc2ccccc2)c1)NO + CC(CO)NC(=O)c1cc(-c2ccc(Cl)cc2)nn(-c2cnn(C)c2)c1=O | 87.6
* COc1cc(C2c3cc4c(cc3C(OC3OC5COC(C)OC5C(O)C3O)C3COC(=O)C23)OCO4)cc(OC)c1O (configuration not stated) + Cc1cncc(-c2nc(NCCc3c[nH]c4ccccc34)c3ncn(C(C)C)c3n2)c1 | 79.5
* O=C(C=Cc1cccc(S(=O)(=O)Nc2ccccc2)c1)NO + Cc1cncc(-c2nc(NCCc3c[nH]c4ccccc34)c3ncn(C(C)C)c3n2)c1 | 78.2
* O=C(C=Cc1cccc(S(=O)(=O)Nc2ccccc2)c1)NO + Cc1ccccc1N=Nc1ccc(NC(=O)c2ccnn2C)c(C)c1 | 102
* Nc1ncn(C2CC(O)C(CO)O2)c(=O)n1 (configuration not stated) + CC(CO)NC(=O)c1cc(-c2ccc(Cl)cc2)nn(-c2cnn(C)c2)c1=O | 89.5
* Nc1ccn(C2OC(CO)C(O)C2(F)F)c(=O)n1 (configuration not stated) + Cc1cncc(-c2nc(NCCc3c[nH]c4ccccc34)c3ncn(C(C)C)c3n2)c1 | 75.2
* Nc1ccccc1NC(=O)c1ccc(CNC(=O)OCc2cccnc2)cc1 + CC(CO)NC(=O)c1cc(-c2ccc(Cl)cc2)nn(-c2cnn(C)c2)c1=O | 105
* CC1COCCN1c1cc(C2(S(C)(=N)=O)CC2)nc(-c2ccnc3[nH]ccc23)n1 (configuration not stated) + CC(CO)NC(=O)c1cc(-c2ccc(Cl)cc2)nn(-c2cnn(C)c2)c1=O | 95.8
* CC1(C)CCC(CN2CCN(c3ccc(C(=O)NS(=O)(=O)c4ccc(NCC5CCOCC5)c([N+](=O)[O-])c4)c(Oc4cnc5[nH]ccc5c4)c3)CC2)=C(c2ccc(Cl)cc2)C1 + Cc1ccccc1N=Nc1ccc(NC(=O)c2ccnn2C)c(C)c1 | 97.7
* COc1cc(Nc2ncc3c(n2)-c2ccc(Cl)cc2C(c2c(F)cccc2OC)=NC3)ccc1C(=O)O + Cc1cncc(-c2nc(NCCc3c[nH]c4ccccc34)c3ncn(C(C)C)c3n2)c1 | 50.9
